# key: entry, value: koff
- Measured Target: T1, recombinant human OX40-his (Sino Biological, Cat#:10481-H03H) (human, UniProt P43489 29-214)
- T1 construct: bought protein; also called hOX40-his; not shown: His tag
- T1 sequence: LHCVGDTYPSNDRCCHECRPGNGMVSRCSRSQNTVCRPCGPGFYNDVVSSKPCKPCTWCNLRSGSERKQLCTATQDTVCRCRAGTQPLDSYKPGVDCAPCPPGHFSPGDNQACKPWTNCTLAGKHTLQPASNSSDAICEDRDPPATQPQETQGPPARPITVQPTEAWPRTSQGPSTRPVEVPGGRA
- Method: SPR Biacore 8K, OX40-His on chip, antibody injected
Form entry: value (s⁻¹) — number only.

Could you share which koff value was measured for 71H8-VH2VL3 (antibody, human IgG1, kappa, V domains shown, humanized; also called 71H8-H2L3; 71H8H2L3) VH: QVQLVQSGAEVKKPGASVKVSCKVSGYTFTSYWITWVRQRPGKGLEWMGDIYPGSGSTNQNEKFKSRVTMTVDTSTDTAYMELSSLRSEDTAVYYCATLRPYYFVYWGQGTLVTVSS VL: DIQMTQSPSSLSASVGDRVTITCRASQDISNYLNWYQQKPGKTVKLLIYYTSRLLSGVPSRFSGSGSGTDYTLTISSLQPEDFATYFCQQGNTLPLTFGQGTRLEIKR ? 0.00198

# lookup: koff of 71H8-VH3VL2 (antibody, human IgG1, kappa, V domains shown, humanized; also called 71H8-H3L2) VH: QVQLVQSGAEVKKPGASVKVSCKVSGYTFTSYWITWVRQRPGQGLEWIGDIYPGSGSTNQNEKFKSRVTLTVDTSTDTAYMELSSLRSEDTAVYYCATLRPYYFVYWGQGTLVTVSS VL: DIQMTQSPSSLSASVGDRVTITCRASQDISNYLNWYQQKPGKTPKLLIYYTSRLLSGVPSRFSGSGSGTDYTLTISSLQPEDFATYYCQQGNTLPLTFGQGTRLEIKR 0.00871

Need koff, item 68C8-VH0VL0 (antibody, human IgG1, kappa, V domains shown, humanized; also called 68C8-H0L0) VH: QVQLVQSGAEVKKPGASVKVSCKVSGDTFTSYWITWVRQAPGKGLEWMGDIHPGSGSTNNNEKFKNRVTMTEDTSTDTAYMELSSLRSEDTAVYYCATLRPYYFVYWGQGTLVTVSS VL: DIQMTQSPSSLSASVGDRVTITCRASQDISNYLNWYQQKPGKAPKLLIYYTSRLLSGVPSRFSGSGSGTDFTLTISSLQPEDFATYYCQQGNTLPLTFGQGTRLEIKR 0.00184

Source listed as patent US10442866.
